- target desc: T1, bovine serum albumin (BSA) (bovine, UniProt P02769 25-607)
- T1 construct: Control antigen coated at 1% in PBS (pH 7.4); also called negative control antigen
- T1 sequence (P02769 25-607 limits assumed): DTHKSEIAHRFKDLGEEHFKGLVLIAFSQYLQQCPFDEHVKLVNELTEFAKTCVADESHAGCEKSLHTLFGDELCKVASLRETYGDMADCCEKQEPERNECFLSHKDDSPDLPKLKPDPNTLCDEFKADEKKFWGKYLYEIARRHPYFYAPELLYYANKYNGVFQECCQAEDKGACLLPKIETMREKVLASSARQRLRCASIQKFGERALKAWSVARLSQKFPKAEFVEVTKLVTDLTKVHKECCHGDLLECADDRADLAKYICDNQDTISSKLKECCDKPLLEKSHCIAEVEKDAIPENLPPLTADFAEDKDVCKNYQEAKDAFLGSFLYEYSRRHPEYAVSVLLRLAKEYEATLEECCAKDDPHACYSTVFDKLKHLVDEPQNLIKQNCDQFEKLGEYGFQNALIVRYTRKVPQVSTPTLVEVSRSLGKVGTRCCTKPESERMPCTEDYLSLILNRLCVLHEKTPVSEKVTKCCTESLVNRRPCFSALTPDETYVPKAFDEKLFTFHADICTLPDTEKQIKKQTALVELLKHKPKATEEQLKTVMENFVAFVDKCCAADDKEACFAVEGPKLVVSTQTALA
- assay comment: phage ELISA, 1% BSA coated, anti-M13-HRP detection
Measured OD492 nm values are reported for all entries that follow.

binder	OD492 nm
SC06-043 (scFv, Vl 140-249); also called single-chain phage antibody SC06-043) scFv: EVQLVESGAEVKKPGESLKISCKGSGYSFTSYWIGWVRQMPGKGLEWMGIIYPGDSDTRYSPSFQGQVTISADKSISTAYLQWSSLKASDTAMYYCARRYCSGGTCSDGFDIWGQGTMVTVSSGTGGSGGTGSGTGGSTQSALTQPPSASGSPGQSVTISCTGTSSDVGGYNYVSWYQQHPGKAPKLMIYEVSKRPSGVPDRFSGSKSGNTASLTVSGLQAEDEADYYCSSYAGSNNLVFGGGTKLTVL	0.045 OD492 nm
SC06-429 (scFv, Vl 138-249); also called single-chain phage antibody SC06-429) scFv: QVQLVQSGAEVKNPGESLKISCKGSGYTFTSYWIGWVRQMPGKGLEWMGSIYPGDSDTRYSPSFQGQVTISVDKSISTAYLQWSSLKASDTAMYYCARQYRAGSTTRFDPWGQGTLVTVSSGTGGSGGTGSGTGGSTDVVMTQSPLSLPVTPGEPASISCRSSQSLRHRNGNNYLDWYLQKPGQSPQLLIYLGSNRASGVPDRFSGSGSGTDFTLKISRVEAEDVGIYYCMQALQTPLTFGGGTKVEIK	0.068 OD492 nm
SC06-241 (scFv, Vl 135-241); also called single-chain phage antibody SC06-241) scFv: EVQLVESGGGLVQPGRSLRLSCAASGFTFRSYAMYWVRQAPGKGLEWLALISHDASKMFYADSVKGRFTISRDNSKNTLSLQMNSLTIEDTAVYYCVRERTGYYGAYWGQGTLVTVSSGTGGSGGTGSGTGGSTDIQMTQSPSSLSASVGDRVTLTCRASQGIGTWLAWYQQKPGKAPKLLIYSASSLQSGVPSRFSGSGSGTDFTLSISNLQPEDFATYYCQQANSFPITFGQGTRLEIK	0.052 OD492 nm
SC06-016 (scFv, Vl 135-241); also called single-chain phage antibody SC06-016) scFv: QVQLVQSGPEVKKPGASVTVSCKASGYSFSSYGISWVRQAPGQGLEWMGRIIPVGGNTLYSQMFQGRVTMTSDTSTSTVYLELSSLRSEDTAVYFCARDGGRWQFDYWGQGTLVTVSSGTGGSGGTGSGTGGSTDIQLTQSPSSVSASVGDRVTITCRASQGISNWLAWYQQKPGKAPELLIYAASSLQSGVPPRFSGSASGTDFTLTISSLQPEDFATYYCQQSKNFPYTFGQGTKVEIK	0.044 OD492 nm
